Data provenance: PubChem BioAssay (NCI)

# Test system: A549/ATCC NSCLC
# ASSAY EXPLANATION: NCI-60 one-dose screen, 48 h (100 = growth as untreated, 0 = no growth, -100 = all killed)
# STATED CONDITIONS: 1 µM
# Procedure: Growth inhibition of the A549/ATCC human Non-Small Cell Lung tumor cell line is measured as a screen for anti-cancer activity. Cells are grown in 96 well plates and exposed to the test compound for 48 hours. Compounds are tested at a single concentration, which is 10^-5 M for most compounds. The reported endpoint is percent growth (GI% or GIPRCNT), where numbers from 0 - 100% represent growth inhibition, and numbers from -100% - 0 represent cell death. […]
About 83,000 compounds went through this panel and 20% of them were active in at least one assay; those are over-represented in the sample as a whole.
MEASUREMENT LABEL: growth (%)
Your answer is read as %, so omit the unit and give the number.

Enquiry: Would you kindly share the measured growth for CC/C(=C(/c1ccc(O)cc1)c1ccc(OCCN(C)C(=O)COCCOCCNC(=O)Cc2ccc3c(c2)CN([C@@H]2CCC(=O)NC2=O)C3=O)cc1)c1ccccc1 ?
Return: 102

Enquiry: Would you kindly share the measured growth for CC/C(=C(/c1ccc(O)cc1)c1ccc(OCCN(C)C(=O)CCOCCNC(=O)Cc2ccc3c(c2)CN([C@@H]2CCC(=O)NC2=O)C3=O)cc1)c1ccccc1 ?
Return: 93.1

Enquiry: Would you kindly share the measured growth for CC/C(=C(/c1ccc(O)cc1)c1ccc(OCCN(C)C(=O)COCCOCCNC(=O)c2ccc3c(c2)CN([C@@H]2CCC(=O)NC2=O)C3=O)cc1)c1ccccc1 ?
Return: 89.4

Enquiry: Would you kindly share the measured growth for CC/C(=C(\c1ccc(O)cc1)c1ccc(OCCN(C)C(=O)CCOCCNC(=O)c2ccc3c(c2)CN([C@@H]2CCC(=O)NC2=O)C3=O)cc1)c1ccccc1 ?
Return: 85

---

Could you please report measured growth for the items listed next?
# Tested on: HCT-15 colon
# ASSAY EXPLANATION: NCI-60 one-dose screen, 48 h (100 = growth as untreated, 0 = no growth, -100 = all killed)
# STATED CONDITIONS: 10 µM unless noted
The panel holds about 83,000 compounds, 20% with a hit somewhere; the sample as a whole holds those more often.
Your answer is read as %, so omit the unit and give the number.

Enquiry: Would you kindly share the measured growth for CN1CCN(C(=O)CCN(C(=O)Oc2cc3c(c4ccccc24)[C@H](CCl)CN3C(=O)c2cc3cc(OCCCN4CCC4)ccc3[nH]2)[C@H]2CCSSC2)CC1 ?
Return: -37

Enquiry: Would you kindly share the measured growth for Cc1ccc(C(=O)Nc2cc(-c3ccncc3)cc(C(F)(F)F)c2)cc1C#Cc1cnc2cccnn12 ?
Return: 40.5

Enquiry: Would you kindly share the measured growth for C/C(=N\Nc1ccc(S(N)(=O)=O)cc1)c1cnn(-c2cc(=O)[nH]c3ccc(Br)cc23)c1C ?
Return: 91.2

Enquiry: Would you kindly share the measured growth for COc1ccc(N=Nc2c(N)nn3c(-c4ccc5c(c4)C=S=C5)ccnc23)cc1 ?
Return: 18.2

---

# Tested on: SF-268 CNS
# ASSAY EXPLANATION: NCI-60 one-dose screen, 48 h
# STATED CONDITIONS: 10 µM unless noted
This is part of a sample that, as a whole, favours compounds with a hit. Of some 83,000 tested, about 20% had one in any assay. The source made the active and inactive calls. Rule for the calls: active = growth percent below 10; inactive = the rest.
Give your call using only these classes: active, inactive

Enquiry: // param item: CCCN(CCC)S(=O)(=O)c1ccc(C(=O)O)cc1.CCCN(CCC)S(=O)(=O)c1ccc(C(=O)O)cc1.[Cl][Pt+2][Cl].[NH2-].[NH2-] ; yields the recorded call
Return: inactive

Enquiry: // param item: O=c1[nH]c2ccccc2cc1CSc1ccccc1Nc1nccc(-c2ccc3c(c2)OCO3)n1 ; yields the recorded call
Return: inactive

Enquiry: // param item: COc1ccc(-c2cc(-c3cc(C(C)C)c(O)cc3C)nn2-c2ccc(S(N)(=O)=O)cc2)cc1 ; yields the recorded call
Return: inactive

Enquiry: // param item: O=C(Nc1ccc(-c2ccc3c(c2)NC(=O)/C3=C\c2ccc[nH]2)cc1)Nc1ccc(Cl)c(C(F)(F)F)c1 ; yields the recorded call
Return: inactive

Enquiry: // param item: O=C1NC(=NC23CC4CC(CC(C4)C2)C3)N/C1=C\c1ccc2ncccc2c1 ; yields the recorded call
Return: inactive

Enquiry: // param item: O=CNc1ccc(-n2cnc3cc(-c4ccc(O)cc4)ccc32)cc1 ; yields the recorded call
Return: inactive

Enquiry: // param item: O=c1c(-c2nc(-c3ccccc3)c(-c3ccccc3)[nH]2)coc2ccc(F)cc12 ; yields the recorded call
Return: inactive

Enquiry: // param item: Cc1[nH]nc2ccc3nc(-c4cnn(CCO)c4)c4c(c3c12)CCCC4 ; yields the recorded call
Return: inactive

Enquiry: // param item: O=C(N/N=C/c1ccc(Br)o1)c1[nH]c2ccc(Br)cc2c1-c1ccccc1 ; yields the recorded call
Return: active
